targetOrTestSystem: HLA B*1501 (Homo sapiens, UniProt P01889, A329T/A93T/A95T/C349S/D201E/D98Y/E187L/E204Q/E69M/E70A/K202T/N87E/Q94N/R155S/R180W/S121R/S35A/S48A/V306I/V36M/Y140S/Y91S)
procedureDetails: biochemical
Type: binding
Where a SMILES comes first, the peptide text is derived from it.
parameter: pIC50
Bear in mind: pIC50 is minus log10 of a mol/L concentration; give just that figure.

{"compound": "CSCC[C@H](NC(=O)[C@H](Cc1ccc(O)cc1)NC(=O)[C@H](CCCCN)NC(=O)[C@H](CO)NC(=O)[C@H](Cc1ccccc1)NC(=O)[C@H](C)NC(=O)[C@@H](N)Cc1ccc(O)cc1)C(=O)N[C@@H](CO)C(=O)N[C@@H](Cc1ccccc1)C(=O)O [3102.1180] (H-YAFSKYMSF-OH)", "parameter": "pIC50", "numericResult": 8.05}

Here's the next entry for you.
Briefly, pIC50 measured for CC[C@H](C)[C@H](NC(=O)[C@@H](N)Cc1ccccc1)C(=O)N[C@@H](CC(N)=O)C(=O)N[C@@H](CCSC)C(=O)N[C@H](C(=O)NCC(=O)N[C@@H](CC(N)=O)C(=O)N[C@@H](Cc1c[nH]cn1)C(=O)N[C@@H](Cc1ccccc1)C(=O)O)[C@@H](C)O [3102.1288] (H-FINMTGNHF-OH) : 7.80

* * *

targetOrTestSystem: HLA B*1503 (Homo sapiens, UniProt P01889, A329T/A93T/A95T/C349S/D201E/D98Y/E187L/E204Q/K202T/N87E/Q94N/R155S/R180L/S121R/S35A/V306I/V36M/Y140S/Y91S)
procedureDetails: biochemical
Where a SMILES comes first, the peptide text is derived from it.
parameter: IC50 (nM)
Record the value in nM, omitting the unit from your answer.

Solved entries (count: 3):
{"compound": "CC(C)C[C@H](NC(=O)[C@H](Cc1c[nH]c2ccccc12)NC(=O)[C@H](CCCCN)NC(=O)[C@H](C)NC(=O)[C@H](CCCCN)NC(=O)[C@@H](N)Cc1ccccc1)C(=O)N[C@H](C(=O)N1CCC[C@H]1C(=O)N[C@@H](Cc1ccccc1)C(=O)O)[C@@H](C)O [3102.1174] (H-FKAKWLTPF-OH)", "resultUnit": "nM", "IC50": 0.073}
{"compound": "CC[C@H](C)[C@H](NC(=O)[C@@H](NC(=O)[C@H](CCC(=O)O)NC(=O)[C@H](CCC(=O)O)NC(=O)[C@H](CO)NC(=O)[C@H](CCSC)NC(=O)[C@@H](N)CC(C)C)[C@@H](C)O)C(=O)N[C@@H](CC(=O)O)C(=O)N[C@@H](Cc1ccccc1)C(=O)O [3102.1106] (H-LMSEETIDF-OH)", "resultUnit": "nM", "IC50": 12}
{"compound": "CC[C@H](C)[C@H](NC(=O)[C@H](CO)NC(=O)[C@@H](N)CC(C)C)C(=O)N[C@@H](CC(N)=O)C(=O)N[C@@H](CO)C(=O)N[C@@H](CO)C(=O)N[C@@H](Cc1ccccc1)C(=O)N[C@@H](Cc1ccc(O)cc1)C(=O)N[C@@H](Cc1ccccc1)C(=O)O [3102.1034] (H-LSINSSFYF-OH)", "resultUnit": "nM", "IC50": 4.8}

# IC50 of CC[C@H](C)[C@H](NC(=O)[C@H](CO)NC(=O)[C@@H](NC(=O)[C@H](C)NC(=O)[C@H](CC(C)C)NC(=O)[C@H](CC(N)=O)NC(=O)[C@H](CCCCN)NC(=O)[C@@H](N)Cc1ccccc1)[C@@H](C)O)C(=O)N[C@@H](Cc1ccc(O)cc1)C(=O)O [3102.1297] (H-FKNLATSIY-OH) = 1.6

Record summary for CC(C)C[C@H](NC(=O)[C@H](C)NC(=O)[C@H](CO)NC(=O)[C@@H](N)Cc1ccccc1)C(=O)N1CCC[C@H]1C(=O)N[C@H](C(=O)N[C@@H](CC(N)=O)C(=O)N[C@@H](CCC(=O)O)C(=O)N[C@@H](Cc1ccccc1)C(=O)O)[C@@H](C)O [3102.1337] (H-FSALPTNEF-OH) : reported IC50 = 0.13

Record summary for CC[C@H](C)[C@H](N)C(=O)N[C@@H](CCCCN)C(=O)N[C@@H](CCCNC(=N)N)C(=O)N[C@H](C(=O)N[C@@H](CO)C(=O)N[C@@H](CO)C(=O)N[C@@H](CO)C(=O)N[C@@H](CC(=O)O)C(=O)N[C@@H](Cc1ccccc1)C(=O)O)C(C)C [3102.1239] (H-IKRVSSSDF-OH) : reported IC50 = 1.8

For record CC[C@H](C)[C@H](NC(=O)[C@H](CC(C)C)NC(=O)[C@H](Cc1ccccc1)NC(=O)[C@@H](NC(=O)[C@H](CO)NC(=O)[C@H](Cc1ccc(O)cc1)NC(=O)[C@H](CC(C)C)NC(=O)[C@@H](N)CCCNC(=N)N)[C@@H](C)CC)C(=O)N[C@@H](Cc1ccccc1)C(=O)O [3102.1049] (H-RLYSIFLIF-OH) the listed IC50 is 0.16

The measurements presented in this section are drawn from paper PMC2248166.
